Listed molecules paired with reported IC50
- TARGET_OF_ASSAY: B-Raf (V600E) (Homo sapiens (Human), UniProt P15056, V600E)
- Sequence (P15056 whole entry V600E): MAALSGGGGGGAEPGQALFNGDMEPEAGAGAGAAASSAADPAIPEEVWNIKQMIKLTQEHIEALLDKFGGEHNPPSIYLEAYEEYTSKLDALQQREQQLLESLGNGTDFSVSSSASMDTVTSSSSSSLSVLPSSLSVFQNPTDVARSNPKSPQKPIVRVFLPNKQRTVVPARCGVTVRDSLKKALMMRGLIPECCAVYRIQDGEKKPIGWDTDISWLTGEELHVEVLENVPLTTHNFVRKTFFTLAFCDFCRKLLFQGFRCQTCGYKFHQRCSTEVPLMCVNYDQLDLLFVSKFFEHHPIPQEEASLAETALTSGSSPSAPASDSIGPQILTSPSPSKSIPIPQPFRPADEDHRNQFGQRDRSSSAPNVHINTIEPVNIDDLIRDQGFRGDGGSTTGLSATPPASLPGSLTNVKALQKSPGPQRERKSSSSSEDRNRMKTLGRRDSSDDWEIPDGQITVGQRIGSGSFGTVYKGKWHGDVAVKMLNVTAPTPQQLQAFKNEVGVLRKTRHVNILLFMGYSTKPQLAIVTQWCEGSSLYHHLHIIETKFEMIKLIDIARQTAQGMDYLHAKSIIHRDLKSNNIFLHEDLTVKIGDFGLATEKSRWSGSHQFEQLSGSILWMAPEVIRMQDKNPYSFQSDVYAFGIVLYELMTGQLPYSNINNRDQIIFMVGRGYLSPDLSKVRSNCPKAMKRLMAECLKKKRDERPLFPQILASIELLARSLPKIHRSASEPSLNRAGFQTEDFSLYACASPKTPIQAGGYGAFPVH
- TEST_PROTOCOL: Raf IC50 assay, time-resolved fluorescence energy transfer, B-Raf (V600E)
- Assay type: biochemical
- CONDITION_SET: 0.1 mM ATP; read-out: IC50 (nM) B_Raf^V600E
MEASUREMENT_TYPE: IC50 (nM)

1. O=C1CCc2c(Oc3ccc4c(c3)[C@H]3[C@H](NC(=O)Nc5ccc(Br)cc5Cl)[C@H]3O4)ccnc2N1 = 6.3
2. COc1ccc(CNC(=O)N[C@@H]2[C@H]3Oc4ccc(Oc5ccnc6c5CCC(=O)N6)cc4[C@@H]23)cc1 = 40
3. O=C1CCc2c(Oc3ccc4c(c3)[C@H]3[C@H](NC(=O)Nc5cccc(F)c5)[C@H]3O4)ccnc2N1 = 1.3
4. O=C1CCc2c(Oc3ccc4c(c3)[C@H]3[C@H](NC(=O)Nc5cccc([N+](=O)[O-])c5)[C@H]3O4)ccnc2N1 = 1.8
